Tested target: Human DOR (Homo sapiens)
Sequence (P41143 whole entry): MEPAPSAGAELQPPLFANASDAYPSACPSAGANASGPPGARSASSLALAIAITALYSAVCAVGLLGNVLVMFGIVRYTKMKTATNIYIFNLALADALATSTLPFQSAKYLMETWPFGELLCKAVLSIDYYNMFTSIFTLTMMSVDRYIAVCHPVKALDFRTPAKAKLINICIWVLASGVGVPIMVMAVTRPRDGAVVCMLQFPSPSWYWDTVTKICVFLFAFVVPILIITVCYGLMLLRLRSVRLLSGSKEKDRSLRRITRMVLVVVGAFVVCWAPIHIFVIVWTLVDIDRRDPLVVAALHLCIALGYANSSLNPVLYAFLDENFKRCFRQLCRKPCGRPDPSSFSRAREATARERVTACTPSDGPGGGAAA
Assay remarks: cell-based
Run conditions: log EC50 ±SEM
No end group written: not given here.
Measured metric: pEC50
# reply with the number alone; pEC50 is -log10 of concentration in mol/L

pEC50 reading for YGGFLRKYPK [α-Neoendorphin] : 5.80

###

Tested target: Human KOR (Homo sapiens, UniProt P41145)
Sequence (P41145 whole entry): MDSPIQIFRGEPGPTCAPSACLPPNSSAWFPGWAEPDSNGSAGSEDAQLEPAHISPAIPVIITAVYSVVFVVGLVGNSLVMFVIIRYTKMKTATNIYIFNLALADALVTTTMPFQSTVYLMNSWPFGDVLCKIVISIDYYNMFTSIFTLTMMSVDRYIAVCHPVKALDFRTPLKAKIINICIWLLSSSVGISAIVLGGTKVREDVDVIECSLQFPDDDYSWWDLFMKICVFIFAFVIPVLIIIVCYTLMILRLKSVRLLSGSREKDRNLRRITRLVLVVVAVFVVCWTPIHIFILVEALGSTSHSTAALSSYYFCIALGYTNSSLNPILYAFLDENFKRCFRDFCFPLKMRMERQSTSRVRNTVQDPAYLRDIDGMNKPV
Assay remarks: cell-based
Run conditions: EC50
No end group written: not given here.
Measured metric: pEC50
Interpret pEC50 as the negative base-10 log of the concentration measured in mol/L.

// sample YGGFLRKYPK [α-Neoendorphin] , its pEC50 was 7.96
